- assayed system: Androgen receptor (Homo sapiens) (UniProt P10275)
- Sequence (P10275 whole entry, looked up): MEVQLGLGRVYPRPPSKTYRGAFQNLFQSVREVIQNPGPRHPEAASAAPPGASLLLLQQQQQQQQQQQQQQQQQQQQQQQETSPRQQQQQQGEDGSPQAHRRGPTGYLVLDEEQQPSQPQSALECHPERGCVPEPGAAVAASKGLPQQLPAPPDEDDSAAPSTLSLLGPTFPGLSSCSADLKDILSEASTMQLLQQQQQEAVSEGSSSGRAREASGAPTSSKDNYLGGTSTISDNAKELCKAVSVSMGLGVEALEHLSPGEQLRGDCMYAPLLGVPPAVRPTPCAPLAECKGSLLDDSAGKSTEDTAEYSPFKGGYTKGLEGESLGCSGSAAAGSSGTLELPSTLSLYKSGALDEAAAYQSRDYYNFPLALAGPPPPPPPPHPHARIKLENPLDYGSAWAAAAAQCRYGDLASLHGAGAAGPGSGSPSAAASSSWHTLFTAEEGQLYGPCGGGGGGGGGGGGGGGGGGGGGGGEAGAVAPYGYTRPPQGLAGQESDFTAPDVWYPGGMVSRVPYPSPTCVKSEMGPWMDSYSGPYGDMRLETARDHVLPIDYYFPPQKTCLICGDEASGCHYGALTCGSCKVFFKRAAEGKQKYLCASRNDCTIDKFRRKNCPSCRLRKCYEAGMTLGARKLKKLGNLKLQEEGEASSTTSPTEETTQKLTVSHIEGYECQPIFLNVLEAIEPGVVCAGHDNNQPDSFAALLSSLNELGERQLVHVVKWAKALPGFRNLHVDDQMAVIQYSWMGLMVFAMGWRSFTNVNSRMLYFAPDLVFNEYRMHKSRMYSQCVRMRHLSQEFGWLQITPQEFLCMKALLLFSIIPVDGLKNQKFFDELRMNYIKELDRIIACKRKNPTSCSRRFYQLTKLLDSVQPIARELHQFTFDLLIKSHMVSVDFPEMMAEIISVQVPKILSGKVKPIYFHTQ
- test details: ATG_AR_TRANS: Attagene TRANS-FACTORIAL HepG2 Assay for human Androgen Receptor (AR) (AID 2282973)
- applied conditions: HepG2 Attagene TRANS-FACTORIAL AR reporter transcription
Inconclusive results are not listed. Activity calls are given as the source filed them. Rule for the calls: active = hit-call score of the fitted dose curve at least 0.9, where 1 is the maximum; inconclusive = response in the unintended direction; inactive = score below 0.9.
Use one of these outcomes when replying: yes = active, no = inactive

These solved cases illustrate the format of a correct answer.
Cc1cc(F)ccc1-c1cc(N2CC[C@@H](O)[C@H]2CO)ncc1N(C)C(=O)C(C)(C)c1cc(C(F)(F)F)cc(C(F)(F)F)c1    no
O=C(O)C(F)(OC(F)(F)C(F)(OC(F)(F)C(F)(OC(F)(F)C(F)(F)C(F)(F)F)C(F)(F)F)C(F)(F)F)C(F)(F)F (stereo not given)    no
O=CC(F)(F)C(F)(F)C(F)(F)F    no
O=C(O)CCC(F)(F)C(F)(F)C(F)(F)C(F)(F)C(F)(F)F    no
Nc1cc([N+](=O)[O-])ccc1Cl    no
OCC(O)CC(F)(F)C(F)(F)C(F)(F)C(F)(F)F (stereo not given)    no

(Q) GET /call?item= O=[N+]([O-])c1ccccc1C(F)(F)F returns the recorded outcome of this test.
(A) no

(Q) GET /call?item= COc1cc(-c2nc(NC(=O)c3cc4cc(C)cc(C)c4n3CC(=O)O)sc2CCC2CCCCC2)c(OC)cc1Cl returns the recorded outcome of this test.
(A) no

(Q) GET /call?item= COc1cc(C=O)ccc1O returns the recorded outcome of this test.
(A) no

(Q) GET /call?item= O=c1c(-c2ccc(O)cc2)coc2cc(O)ccc12 returns the recorded outcome of this test.
(A) no

(Q) GET /call?item= CCCC/C=C/C=C\C=O returns the recorded outcome of this test.
(A) no

(Q) GET /call?item= CCCCCCCCCCCCCCCCOS(=O)(=O)O returns the recorded outcome of this test.
(A) no

(Q) GET /call?item= COc1cc2c(c(OC)c1OC)-c1ccc(OC)c(=O)cc1[C@@H](NC(C)=O)CC2 returns the recorded outcome of this test.
(A) no

###

- test details: CCTE_Mundy_HCI_hN2_NOG_NeuriteCount: CCTE's Neurite Outgrowth Assay in human hN2 cells for Neurite Count, Mundy Lab (AID 2284219)
- Description: CCTE_Mundy_HCI_hN2_NOG is a multiplexed, cell-based-readout assay that uses immature neurons derived from hNP1 neuroprogenitor cells with measurements taken at 50.33 hours after chemical dosing in a microplate: 96-well plate.CCTE_Mundy_HCI_hN2_NOG_NeuriteCount is one of four components of the CCTE_Mundy_HCI_hN2_NOG assay. It measures neurite outgrowth related to number of neurites using High Content Imaging of fluorescently labelled markers.[…] […]
Records with an inconclusive call do not appear. The source made the active and inactive calls. How the source made its calls: active means hit-call score of the fitted dose curve at least 0.9, where 1 is the maximum; inconclusive means response in the unintended direction; inactive means score below 0.9.
endpoint label: AC50

CN[C@]1(c2ccccc2Cl)CCCCC1=O    inactive
C=CCN1CC[C@]23c4c5ccc(O)c4O[C@H]2C(=O)CC[C@@]3(O)[C@H]1C5    inactive
Brc1ccc(Oc2ccc(Br)cc2Br)c(Br)c1    8.93 µM (active)
O.O.O.O.O.[Cd+2].[Cd+2].[Cl-].[Cl-].[Cl-].[Cl-]    30 µM (active)

(Q) What value of AC50 has been recorded for this entry: [CH3][Hg][Cl]
(A) 0.118 µM (active)

###

- test details: BSK_CASM3C_Proliferation: Cell Proliferation Assessment in the BioMAP Diversity Plus: CASM3C Assay (AID 2283047);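 note: sulforhodamine B total protein stain as relative cell number at 560 nm; sub-confluent cells exposed 48 h before staining; fitted both ways against DMSO so gain or loss of cell number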
- applied conditions: primary human coronary artery smooth muscle cells
The source made the active and inactive calls. Rule for the calls: active = hit-call score of the fitted dose curve at least 0.9, where 1 is the maximum; inactive = score below 0.9.
Use one of these outcomes when replying: active, inactive

O=C1C(Cl)=C(Cl)C(=O)C(Cl)=C1Cl    active
CC(C)CCCCCCCOC(=O)c1ccccc1C(=O)OCCCCCCCC(C)C    inactive
CC(C)(C)C(=O)CCl    active
C=CC(=O)OCC(CC)CCCC (stereo unspecified)    inactive
Clc1ccc(-c2ccccc2)cc1    inactive

Moving on to another compound below.
(Q) GET /call?item= COCC(=O)N(c1c(C)cccc1C)N1CCOC1=O returns the recorded outcome of this test.
(A) inactive

###

- test details: BSK_BT_PBMCCytotoxicity: PBMC Cytotoxicity Assessment in the BioMAP Diversity Plus: BT Assay (AID 2284225);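 note: PBMC viability measured by Alamar Blue dye reduction fluorescence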
- applied conditions: primary human B cells with PBMC
Activity calls are given as the source filed them. Rule for the calls: active = hit-call score of the fitted dose curve at least 0.9, where 1 is the maximum; inactive = score below 0.9.
Use one of these outcomes when replying: yes (1) = active, no (0) = inactive

These solved cases illustrate the format of a correct answer.
COC(C)(C)CCC[C@H](C)C/C=C/C(C)=C/C(=O)OC(C)C    yes (1)
O=S(=O)(c1ccccc1)c1ccccc1    no (0)
CC(C)CCCCCCCOP(=O)(Oc1ccccc1)Oc1ccccc1    yes (1)

Moving on to another compound below.
(Q) GET /call?item= C=CCN(CC=C)C(=O)C(Cl)Cl returns the recorded outcome of this test.
(A) no (0)

###

- assayed system: Hepatocyte nuclear factor 6 (Homo sapiens) (UniProt Q9UBC0)
- Sequence (Q9UBC0 whole entry, looked up): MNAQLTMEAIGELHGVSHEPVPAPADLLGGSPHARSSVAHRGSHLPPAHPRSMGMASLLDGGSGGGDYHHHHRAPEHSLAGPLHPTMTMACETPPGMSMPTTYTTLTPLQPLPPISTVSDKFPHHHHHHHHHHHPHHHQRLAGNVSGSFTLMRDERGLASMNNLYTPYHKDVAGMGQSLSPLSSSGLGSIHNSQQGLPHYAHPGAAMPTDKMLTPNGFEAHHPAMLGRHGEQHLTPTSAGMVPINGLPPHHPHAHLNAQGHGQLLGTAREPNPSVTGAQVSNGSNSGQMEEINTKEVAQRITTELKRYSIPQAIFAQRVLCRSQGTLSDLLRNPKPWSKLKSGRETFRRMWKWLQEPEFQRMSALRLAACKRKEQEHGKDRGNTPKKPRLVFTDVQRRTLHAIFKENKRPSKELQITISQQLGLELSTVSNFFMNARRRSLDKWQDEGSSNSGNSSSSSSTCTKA
- test details: ATG_HNF6_CIS: Attagene CIS-FACTORIAL HepG2 Assay for human Hepatocyte Nuclear Factor 6 (HNF6) (AID 2282952)
- applied conditions: HepG2 Attagene cis-factorial HNF6 reporter transcription; actives raise or lower the signal
- Method: ATG_CIS is a cell-based, multiplexed-readout assay that uses HepG2, a human liver cell line, with measurements taken at 24 hours after chemical dosing in a 24-well plate.ATG_HNF6_CIS is one of 52 assay component(s) measured or calculated from the ATG_CIS assay. […] This assay endpoint, ATG_HNF6_CIS, was analyzed with bidirectional fitting relative to DMSO as the negative control and baseline of activity. […]
Calls of active or inactive are those of the source. How the source made its calls: active means hit-call score of the fitted dose curve at least 0.9, where 1 is the maximum; inactive means score below 0.9.
Use one of these outcomes when replying: true (active), false (inactive)

These solved cases illustrate the format of a correct answer.
CCOC(=O)NC(=S)Nc1ccccc1NC(=S)NC(=O)OCC    false
CCCCCCCCCCCCCCCC[N+](C)(C)C    true
S=c1[nH]c2ccccc2[nH]1    false
CC(C)(O)C#N    false
CCCCCCC1CCOC1=O (stereo not given)    false

(Q) GET /call?item= N#CCCCCC#N returns the recorded outcome of this test.
(A) false

(Q) GET /call?item= C=CC(=O)OC returns the recorded outcome of this test.
(A) false

(Q) GET /call?item= C=Cc1cccc(CCl)c1 returns the recorded outcome of this test.
(A) false

(Q) GET /call?item= Nc1ccccc1C(=O)Oc1ccc2ccccc2c1 returns the recorded outcome of this test.
(A) false

(Q) GET /call?item= O=S(=O)(O)O returns the recorded outcome of this test.
(A) false

###

- test details: ACEA_AR_antagonist_AUC_viability: ACEA Biosciences xCELLigence Real-Time Cell Analysis on Androgen Receptor Antagonism for Viability (AID 2283776);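 note: 22Rv1 human prostate cancer cells growing on impedance electrode plates; area under impedance growth curve at 80 h after dosing as viability; hits lower the growth signal relative to DMSO meaning cytotoxicity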
Results filed as inconclusive are left out. Activity calls are given as the source filed them. The calls were made as follows: active = hit-call score of the fitted dose curve at least 0.9, where 1 is the maximum; inconclusive = response in the unintended direction; inactive = score below 0.9.
endpoint label: outcome

Sample records with outcome:
c1ccc2c(c1)CCCC2    inactive
CNC(=N[N+](=O)[O-])NCC1CCOC1 (stereo not given)    inactive
CN(C)N    inactive
CC(Cc1ccc(C(C)(C)C)cc1)CN1C[C@@H](C)O[C@@H](C)C1 (stereo not given in full)    inactive
CC(=O)c1cc2c(cc1C)C(C)(C)C(C)CC2(C)C (stereo not given)    inactive
CC(C)(O)C#N    inactive
c1ccc(P(c2ccccc2)c2ccccc2)cc1    inactive
O=S(=O)(O)OOS(=O)(=O)O    inactive

Go through the items and report each one's outcome.
1. O=C1Nc2ccc(Cl)cc2C(c2ccccc2)=NC1O (stereo not given)
2. O=[N+]([O-])O
3. O=C=Nc1ccccc1

(A)
inactive
inactive
inactive

###

- test details: CCTE_Shafer_MEA_dev_spike_duration_mean: CCTE's Neural Network Formation Assay for Mean Spike Duration, Shafer Lab (AID 2284051);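 note: mean network spike duration pooled as area under curve over DIV 5 to 12 recordings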
Activity calls are given as the source filed them. How the source made its calls: active means hit-call score of the fitted dose curve at least 0.9, where 1 is the maximum; inactive means score below 0.9.
Use one of these outcomes when replying: active, inactive

CCOP(=O)(O)OCC (tested in a mixture with another compound)    inactive
C[n+]1ccc(-c2cc[n+](C)cc2)cc1    active
COP(=O)(OC)SCN1C(=O)c2ccccc2C1=O    inactive
Cn1nc(C(F)(F)F)c(CS(=O)(=O)C2=NOC(C)(C)C2)c1OC(F)F    active
CN1C(=O)CN=C(c2ccccc2)c2cc(Cl)ccc21    active
NCCc1cc(O)c(O)cc1O    active
CCOP(=S)(OCC)SCS(=O)C(C)(C)C (stereo not given)    inactive
CC1(C)[C@H](C=C(Cl)Cl)[C@@H]1C(=O)O[C@@H](C#N)c1cccc(Oc2ccccc2)c1    active
c1ccc2cc3c(cc2c1)-c1cccc2cccc-3c12    inactive
CC1CCCC1.[C-]#[O+].[C-]#[O+].[C-]#[O+].[Mn]    inactive

(Q) GET /call?item= CC1(C)C(C=C(Cl)c2ccc(Cl)cc2)C1C(=O)OC(C#N)c1ccc(F)c(Oc2ccccc2)c1 (stereo not given) returns the recorded outcome of this test.
(A) active

(Q) GET /call?item= C[C@H](N)Cc1ccccc1 returns the recorded outcome of this test.
(A) inactive

(Q) GET /call?item= CP(=O)(O)CC[C@H](N)C(=O)O returns the recorded outcome of this test.
(A) inactive

(Q) GET /call?item= CNC(=N[N+](=O)[O-])NCC1CCOC1 (stereo not given) returns the recorded outcome of this test.
(A) inactive
